Molecular target: T1, ST2 on the effector cells (KU812, KU812/NF-κB-1#, HUVEC, HMC-1) (human, UniProt Q01638 19-556)
T1 sequence (looked up): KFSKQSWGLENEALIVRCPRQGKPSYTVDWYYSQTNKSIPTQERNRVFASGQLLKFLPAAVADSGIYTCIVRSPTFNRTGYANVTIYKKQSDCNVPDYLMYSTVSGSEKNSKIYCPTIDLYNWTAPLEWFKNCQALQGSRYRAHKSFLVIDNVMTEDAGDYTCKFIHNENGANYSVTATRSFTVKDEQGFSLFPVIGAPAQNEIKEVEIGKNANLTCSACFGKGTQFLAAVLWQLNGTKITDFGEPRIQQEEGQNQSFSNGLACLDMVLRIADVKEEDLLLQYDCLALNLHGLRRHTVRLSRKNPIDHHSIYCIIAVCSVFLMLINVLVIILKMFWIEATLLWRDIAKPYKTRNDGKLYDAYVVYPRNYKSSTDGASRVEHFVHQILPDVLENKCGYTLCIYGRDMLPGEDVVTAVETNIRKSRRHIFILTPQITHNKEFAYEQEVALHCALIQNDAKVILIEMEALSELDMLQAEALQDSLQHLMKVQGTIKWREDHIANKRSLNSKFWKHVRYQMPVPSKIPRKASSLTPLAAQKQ
Experiment: cell-based or functional assay
measurementKind: Relative activity compared with CNTO7160, KU812-NF-κB reporter gene
A bare number is not enough; add the unit after it.

Data request: Specify Relative activity compared with CNTO7160, KU812-NF-κB reporter gene for 5888-116-H0L1 (antibody, human IgG4 S228P, kappa, V domains shown, Humanized antibody) VH: QVQLVQSGAEVKKPGASVKVSCKASGYTFTDSEMYWVRQAPGQGLEWMGAIDPETGDTAFNQKFKGRVTMTRDTSTSTVYMELSSLRSEDTAVYYCARAFDNDNDDGFAYWGQGTMVTVSS VL: DIQMTQSPSSLSASVGDRVTITCSASSSVNYMHWYQQKPGKAPKRLIYDTSKLASGVPSRFSGSGSGTDYTFTISSLQPEDAATYYCQQWSSNPLTFGQGTKLEIKR and stop.
Data returned: 1540%
